Can you tell me cytotoxicity at 70.5 h for the items I'm about to list?
- assay-text: Human HepG2 cell viability assay in 384 well format
- Format: toxicity, cell-based
- Design: dose 125 nL, time 70.5 hour; concentration not given beside the values
- assay-conditions: HepG2 cells, read-out: Inhibition
Numbers only, in %.

// solved cases for cytotoxicity at 70.5 h follow
N#CCCN(Cc1ccco1)C(=O)CCCNC(=O)c1ccccc1    -15.9
Nc1cc(C(=O)N2C[C@H]3CC[C@@H]2CN(Cc2cccnc2)C3)ccn1    -6.5
CCn1c(C)nc2cc(NC(=O)CC3CCCCO3)ccc21 (configuration not stated)    -7.28
Cc1cc(C)n(CC(=O)N2CCC(c3nc(C)no3)CC2)n1    2.07
CC1=Nc2c(c(O)nn2C(C)C)C(c2cnn(C)c2)S1 (configuration not stated)    -11
CCC(OC)C(=O)N1CCc2nc(NC)nc(C(=O)N3CCCC3)c2C1 (configuration not stated)    -5.78

Please give cytotoxicity at 70.5 h for each item listed below.
1. Cc1cccc(-c2noc(CN3CCCCC3Cn3cncn3)n2)c1 (configuration not stated)
2. CC(Sc1n[nH]c(-c2ccc3c(c2)CCC3)n1)C(N)=O (configuration not stated)

1: -6.45; 2: 0.8

Please give cytotoxicity at 70.5 h for each item listed below.
1. Cc1cnn(CC2CCCN2CC(=O)Nc2nc(C)cs2)c1 (configuration not stated)
2. O=C1NCC2(CCCN(c3ncnc4c3CCC4)CC2)O1 (configuration not stated)

1. 1.41
2. 2.31

Please give cytotoxicity at 70.5 h for each item listed below.
1. C=C(C)CN1CCOC(Cn2cncn2)C1 (configuration not stated)
2. O=C(c1cccc(OC2CCCC2)c1)N1CCCC(n2cncn2)C1 (configuration not stated)

1. 32
2. 5.3

---

Can you tell me cytotoxicity at 70.5 h for the items I'm about to list?
- assay-text: Human HepG2 cell viability assay in 384 well format
- Type: toxicity, cell-based
- Design: dose 125 nL, time 70.5 hour; concentration not given beside the values
- assay-conditions: HepG2 cells, read-out: Inhibition
Answers are plain numbers, in %.

CNC(=O)c1cnc(/C=C/c2cc(OC)c3c(c2)OCCO3)s1    -6.59
Cc1ccc(F)c(N2CCCC(Nc3nccn4cnnc34)C2=O)c1 (stereo unspecified)    -11.1

Please give cytotoxicity at 70.5 h for each item listed below.
1. CC(C)n1ccnc1CN1CCCN(C(=O)CC2CCCO2)CC1 (stereo unspecified)
2. O=C(CCc1cc2n(n1)CCN(CCCn1cccc1)C2)N1CCCC1
3. CC(=O)N[C@@H]1CN(c2nc(C(N)=O)cs2)C[C@H]1c1ccc(C)o1

23.9
-10.4
-15.3

The reported value for CC(NC(=O)NCCC1=CCCCC1)c1nncn1C (stereo unspecified) in terms of cytotoxicity at 70.5 h is 35.8

---

- assay-text: Human HepG2 cell viability assay in 384 well format
- Type: toxicity, cell-based
- Design: dose 125 nL, time 70.5 hour; concentration not given beside the values
- assay-conditions: HepG2 cells, read-out: Inhibition
value-type: cytotoxicity at 70.5 h (%)
Answers are plain numbers, in %.

Cc1cccc(S(=O)(=O)N2CCCC3(CCCN3S(C)(=O)=O)C2)c1 (stereo unspecified)    3.22
Cc1cnc(NC2CCN(CC(=O)Nc3ccccc3)CC2)nc1C    2.9
O=C(C1CCCOC1)N1CCCCc2ccccc21 (stereo unspecified)    -12.1
Cc1cnn(CC2CN(Cc3nc(-c4cccnc4)no3)CCO2)c1 (stereo unspecified)    -0.171

Please give cytotoxicity at 70.5 h for each item listed below.
1. CN(C)S(=O)(=O)NCc1cccnc1Oc1ccc(F)c(F)c1
2. COCc1csc(NC(=O)NCc2ccsc2)n1

-4.24
-4.84
